Test system: Leishmania donovani
Assay: Antileishmanial activity against wild type Leishmania donovani promastigotes incubated for 72 hrs by resazurin dye based assay
Type: functional, organism-based
pIC50: −log10 of the molar value.
Entry flag: yes (1) if pIC50 reaches 6; no (0) if it does not.

Observe how each entry below is paired with its result.
1. CC(C)(C)/[N+]([O-])=C/c1ccc([N+](=O)[O-])s1	no (0)
2. CC1CS(=O)(=O)CCN1/N=C/c1ccc([N+](=O)[O-])o1 (stereo not drawn) [NIFURTIMOX]	no (0)
3. O=[N+]([O-])c1ccc(/C=[N+](\[O-])Cc2ccccc2)s1	yes (1)

Continue with the compound presented below.
Query string: Quick check, pIC50 >= 6? C[C@]1(COc2ccc(N3CCC(Oc4ccc(OC(F)(F)F)cc4)CC3)cc2)Cn2cc([N+](=O)[O-])nc2O1 [DELAMANID]
Result string: yes (1)

----------
Tested on: Leishmania donovani
Experiment: Antileishmanial activity against Leishmania donovani LdBOB derived from MHOM/SD/62/1 S-CL2D promastigotes overexpressing NTR2 incubated for 72 hrs by resazurin dye based assay
Assay type: functional, organism-based
Define the label as T when IC50 is strictly less than 200 nM and as F in all remaining cases.

1. C[C@]1(COc2ccc(N3CCC(Oc4ccc(OC(F)(F)F)cc4)CC3)cc2)Cn2cc([N+](=O)[O-])nc2O1 [DELAMANID]	T
2. C/[N+]([O-])=C/c1ccc([N+](=O)[O-])s1	F
3. O=[N+]([O-])c1ccc(/C=[N+](\[O-])Cc2ccccc2)o1	F
4. O=[N+]([O-])c1ccc(/C=[N+](\[O-])Cc2ccccc2)s1	F

Query string: Determine whether this molecule shows IC50 lower than 200 nM (ties excluded): CC(C)(C)/[N+]([O-])=C/c1ccc([N+](=O)[O-])s1
Result string: F

Query string: Request: C/[N+]([O-])=C/c1ccc([N+](=O)[O-])o1
Result string: T

Query string: Follow-up item: CC(C)(C)/[N+]([O-])=C/c1ccc([N+](=O)[O-])o1
Result string: T

----------
System: Leishmania donovani
Assay: Selectivity index, ratio of IC50 for antileishmanial activity against wild type Leishmania donovani promastigotes to IC50 for antileishmanial activity against Leishmania donovani LdBOB derived from MHOM/SD/62/1 S-CL2D promastigotes overexpressing NTR2
Assay type: functional
In this section we review reported Ratio IC50 values for a set of compounds.

// worked examples, Ratio IC50 included
1) C/[N+]([O-])=C/c1ccc([N+](=O)[O-])o1	6.1
2) C/[N+]([O-])=C/c1ccc([N+](=O)[O-])s1	4.5
3) C[C@]1(COc2ccc(N3CCC(Oc4ccc(OC(F)(F)F)cc4)CC3)cc2)Cn2cc([N+](=O)[O-])nc2O1	12.5
4) O=[N+]([O-])c1ccc(/C=[N+](\[O-])Cc2ccccc2)s1	0.53
5) O=[N+]([O-])c1ccc(/C=[N+](\[O-])Cc2ccccc2)o1	0.74

Query string: Can you look up the measured Ratio IC50 of CC(C)(C)/[N+]([O-])=C/c1ccc([N+](=O)[O-])s1 for me?
Result string: 18

Query string: Try CC(C)(C)/[N+]([O-])=C/c1ccc([N+](=O)[O-])o1 next.
Result string: 21

----------
Experiment: Cytotoxicity against BALB/c mouse peritoneal macrophages assessed as reduction in cell viability incubated for 72 hrs by resazurin dye based fluorescence assay
Parameters: species or system Peritoneal macrophage
parameter_measured: CC50 at 72 h (µM)
Form entry: value (µM) — number only.

Solved entries (count: 8):
1) O=Cc1ccc([N+](=O)[O-])o1	27.8
2) C/[N+]([O-])=C/c1ccc([N+](=O)[O-])o1	49.9
3) O=[N+]([O-])c1ccc(/C=[N+](\[O-])Cc2ccccc2)s1	18.5
4) CC(C)(C)/[N+]([O-])=C/c1ccc([N+](=O)[O-])s1	29.8
5) O=Cc1ccc([N+](=O)[O-])s1	6.25
6) CCCCCCCCCCCCCCCCOP(=O)([O-])OCC[N+](C)(C)C [MILTEFOSINE]	96.5
7) C/[N+]([O-])=C/c1ccc([N+](=O)[O-])s1	24.2
8) CC(C)(C)/[N+]([O-])=C/c1ccc([N+](=O)[O-])o1	108

Now take the following compound into account.
Query string: // returns reported CC50 at 72 h for input O=[N+]([O-])c1ccc(/C=[N+](\[O-])Cc2ccccc2)o1
Result string: 31.9

----------
Experiment: Electrochemical behavior of the compound in aprotic medium assessed as redox potential using glassy carbon electrode by cyclic voltammetry analysis
Type: physicochemical
parameter_measured: Activity (V)
The figure you give is taken to be in V; do not add the unit.

1) O=Cc1ccc([N+](=O)[O-])o1	-0.38
2) CC(C)(C)/[N+]([O-])=C/c1ccc([N+](=O)[O-])s1	-0.64
3) CC(C)(C)/[N+]([O-])=C/c1ccc([N+](=O)[O-])o1	-0.67
4) C/[N+]([O-])=C\c1ccc([N+](=O)[O-])cc1	-0.68
5) C/[N+]([O-])=C/c1ccc([N+](=O)[O-])o1	-0.62
6) C/[N+]([O-])=C/c1ccc([N+](=O)[O-])s1	-0.61

# ---- query compound ----
Query string: Which Activity is listed for O=Cc1ccc([N+](=O)[O-])cc1 ?
Result string: -0.58

----------
Experiment: Selectivity index, ratio of CC50 for cytotoxicity against BALB/c mouse peritoneal macrophages assessed as reduction in cell viability incubated for 72 hrs by resazurin dye based fluorescence assay to IC50 for antileishmanial activity against intracellular Leishmania infantum MHOM/MA/67/ITMAP-263 amastigotes infected in BALB/c mouse peritoneal macrophage
Format: toxicity
Conditions: read-out: Selectivity Index
parameter_measured: selectivity ratio at 72 h
Number only, no unit.

Some molecules with recorded selectivity ratio at 72 h:
1. CCCCCCCCCCCCCCCCOP(=O)([O-])OCC[N+](C)(C)C [MILTEFOSINE]	193
2. O=[N+]([O-])c1ccc(/C=[N+](\[O-])Cc2ccccc2)o1	5.7
3. CC(C)(C)/[N+]([O-])=C/c1ccc([N+](=O)[O-])o1	5670

Query string: Query (molecule): O=[N+]([O-])c1ccc(/C=[N+](\[O-])Cc2ccccc2)s1 ; field requested: selectivity ratio at 72 h
Result string: 2.6

Query string: // repeat for C/[N+]([O-])=C/c1ccc([N+](=O)[O-])o1 and report
Result string: 295

----------
Tested on: Leishmania donovani
Assay: Selectivity index, ratio of IC50 for antileishmanial activity against wild type Leishmania donovani promastigotes to IC50 for antileishmanial activity against Leishmania donovani LdBOB derived from MHOM/SD/62/1 S-CL2D promastigotes overexpressing NTR1
Assay type: functional
Recorded Ratio IC50 by entry
Could you keep your reply to the number by itself?

1. CC(C)(C)/[N+]([O-])=C/c1ccc([N+](=O)[O-])s1	17
2. O=[N+]([O-])c1ccc(/C=[N+](\[O-])Cc2ccccc2)o1	0.81
3. C/[N+]([O-])=C/c1ccc([N+](=O)[O-])o1	38
4. CC1CS(=O)(=O)CCN1/N=C/c1ccc([N+](=O)[O-])o1 (configuration not stated) [NIFURTIMOX]	17
5. O=[N+]([O-])c1ccc(/C=[N+](\[O-])Cc2ccccc2)s1	1.3
6. C/[N+]([O-])=C/c1ccc([N+](=O)[O-])s1	4.6

Query string: I am curious: what Ratio IC50 value has been reported for CC(C)(C)/[N+]([O-])=C/c1ccc([N+](=O)[O-])o1 ?
Result string: 17

----------
Test: Selectivity index, ratio of CC50 for cytotoxicity against BALB/c mouse peritoneal macrophages assessed as reduction in cell viability incubated for 72 hrs by resazurin dye based fluorescence assay to IC50 for antileishmanial activity against intracellular Leishmania amazonensis MHOM/BR/77/LTB 0016 amastigotes infected in BALB/c mouse peritoneal macrophage
Format: toxicity
Conditions: read-out: Selectivity Index
The threshold is inclusive: selectivity ratio at 72 h of exactly 30 counts as t; values below receive f.

Below, 3 compounds whose answers are already recorded.
1. C/[N+]([O-])=C/c1ccc([N+](=O)[O-])s1	f
2. O=Cc1ccc([N+](=O)[O-])o1	f
3. CC(C)(C)/[N+]([O-])=C/c1ccc([N+](=O)[O-])o1	t

Query string: Reported selectivity ratio at 72 h at or above 30? CCCCCCCCCCCCCCCCOP(=O)([O-])OCC[N+](C)(C)C [MILTEFOSINE]
Result string: f

Query string: Please give the result for O=[N+]([O-])c1ccc(/C=[N+](\[O-])Cc2ccccc2)o1 too.
Result string: f

Query string: Let us now turn to O=[N+]([O-])c1ccc(/C=[N+](\[O-])Cc2ccccc2)s1
Result string: f

Query string: Proceed to O=Cc1ccc([N+](=O)[O-])s1
Result string: f

Query string: Can you check C/[N+]([O-])=C/c1ccc([N+](=O)[O-])o1 next?
Result string: t
